The entries below are paired with their reported IC50.
system: MDA-MB-435; test: Cytotoxicity against human MDA-MB-435 cells assessed as reduction in cell viability by MTT assay; format: functional, cell-based
# output: bare number, implied unit µM

CCC(=O)Oc1cc(C)cc(Oc2cc(C)cc(OC)c2)c1 31.9
CC(C)(c1ccc(O)cc1)c1ccc(OCC(O)COc2ccc(C(C)(C)c3ccc(O)cc3)cc2)cc1 22.3
COc1cc(C)cc(Oc2cc(C)cc(OC)c2)c1 12.5

--- query ---
For the compound COc1cc(C)cc(Oc2cc(C)cc(O)c2)c1 , what IC50 is on record?
41.1

Values from ChEMBL document CHEMBL4342447
